Study system: Major prion protein (Homo sapiens)
Protocol summary: Binding affinity to human PrPC at 40 uM
Measure: RUmax
Please state the value followed by its unit.

Example cases with answers are listed next.
{"columns": ["Chem smiles", "RUmax"],
 "data": [
  ["COc1cccc(-c2c(C#N)c(N)nc(Sc3ccccc3)c2C#N)c1", "0%"],
  ["N#Cc1c(N)nc(Sc2ccccc2)c(C#N)c1-c1ccccc1", "0%"],
  ["COC(=O)c1ccc(-c2c(C#N)c(N)nc(Sc3ccc(O)cc3)c2C#N)cc1", "0%"],
  ["N#Cc1c(N)nc(Sc2cccc(Cl)c2)c(C#N)c1-c1ccc(Cl)cc1", "119%"]
]}

INPUT: Tell me the measured RUmax of "COc1ccc(-c2c(C#N)c(N)nc(Sc3ccccc3)c2C#N)cc1" , please.
OUTPUT: 0%

====

Study system: Major prion protein (Homo sapiens)
Protocol summary: Binding affinity to truncated human PrPC at 40 uM
Measure: RUmax (%)
# unit: % | format: bare number

Example cases with answers are listed next.
{"columns": ["Chem smiles", "RUmax, %"],
 "data": [
  ["COC(=O)c1ccc(Sc2nc(N)c(C#N)c(-c3ccccc3)c2C#N)cc1", 0],
  ["COC(=O)c1ccc(-c2c(C#N)c(N)nc(Sc3ccc(O)cc3)c2C#N)cc1", 0],
  ["CC(=O)c1ccc(-c2c(C#N)c(N)nc(Sc3ccc(O)cc3)c2C#N)cc1", 0]
]}

INPUT: Tell me the measured RUmax of "N#Cc1c(N)nc(Sc2ccc(O)cc2)c(C#N)c1-c1ccc(O)c(Cl)c1" , please.
OUTPUT: 33.4

INPUT: Tell me the measured RUmax of "COc1ccc(-c2c(C#N)c(N)nc(Sc3cccc(Cl)c3)c2C#N)cc1" , please.
OUTPUT: 0

====

Study system: Major prion protein (Mus musculus)
Protocol summary: Binding affinity to mouse PrPC at 40 uM
Measure: RUmax
Please state the value followed by its unit.

{"columns": ["Chem smiles", "RUmax"],
 "data": [
  ["COc1ccc(-c2c(C#N)c(N)nc(Sc3ccccc3)c2C#N)cc1", "0%"],
  ["N#Cc1c(N)nc(Sc2ccccc2)c(C#N)c1-c1ccccc1", "0%"],
  ["N#Cc1c(N)nc(Sc2ccc(O)cc2)c(C#N)c1-c1cccc(O)c1", "43.1%"],
  ["N#Cc1c(N)nc(Sc2cccc(Cl)c2)c(C#N)c1-c1ccccc1", "0%"]
]}

Now look at this one.
INPUT: Tell me the measured RUmax of "COC(=O)c1ccc(-c2c(C#N)c(N)nc(Sc3cccc(Cl)c3)c2C#N)cc1" , please.
OUTPUT: 0%

====

Study system: Major prion protein (Homo sapiens)
Protocol summary: Binding affinity to truncated human PrPC at 40 uM
Label key: 1 (yes) means RUmax under 7%; 0 (no) means RUmax of 7% or more.

Example results:
{"columns": ["Chem smiles", "Qualitative label"],
 "data": [
  ["COC(=O)c1ccc(-c2c(C#N)c(N)nc(Sc3cccc(Cl)c3)c2C#N)cc1", "1 (yes)"],
  ["COC(=O)c1ccc(-c2c(C#N)c(N)nc(Sc3ccc(NC(C)=O)cc3)c2C#N)cc1", "1 (yes)"]
]}

INPUT: Identify whether the compound "N#Cc1c(N)nc(Sc2ccc(Cl)cc2)c(C#N)c1-c1ccccc1" records RUmax below 7%.
OUTPUT: 0 (no)

INPUT: Identify whether the compound "COC(=O)c1ccc(-c2c(C#N)c(N)nc(Sc3cccc(C(=O)OC)c3)c2C#N)cc1" records RUmax below 7%.
OUTPUT: 1 (yes)

meta.source: ChEMBL document CHEMBL1147735
